- target.entity: KRAS WT (Homo sapiens (Human), UniProt P01116)
- Sequence (P01116-2 other isoform, or with tags, fused parts or gaps): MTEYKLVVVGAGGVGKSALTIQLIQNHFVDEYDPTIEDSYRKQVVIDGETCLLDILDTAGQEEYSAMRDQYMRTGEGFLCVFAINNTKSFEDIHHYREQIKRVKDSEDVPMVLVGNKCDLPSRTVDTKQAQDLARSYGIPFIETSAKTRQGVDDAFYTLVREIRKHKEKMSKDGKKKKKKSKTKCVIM
- assay.text: KRAS WT Biochemical Assay, BODIPY-GDP Exchange TR-FRET (Example 502; 0.06 nM KRAS WT, 15 nM GDP, 300 nM SOS1, 120-minute incubation)
- measurement.setup: read-out: KRas HTRF IC50
recorded.metric: log10 IC50 (log10 of the value in nM)
In our notation, the value equals log10 of IC50 in nM.

The examples below pair each entry with its known result.
Cc1cc(N)cc(-c2nc3c4c(nc(OC[C@@]56CCCN5C[C@H](F)C6)nc4c2F)N2C[C@H]4CC[C@H](N4)[C@H]2[C@H](C)O3)c1Cl: 1.49
Cc1cc(N)c(F)c(-c2nc3c4c(nc(OC[C@@H]5CC[C@H]6COCCN65)nc4c2F)N2C[C@H]4CC[C@H](N4)[C@H]2[C@H](C)O3)c1C(F)(F)C(F)(F)F: 2.69
Cc1cc(N)c(F)c(-c2nc3c4c(nc(OC[C@@H]5CC[C@H]6COCCN65)nc4c2F)N2C[C@H]4CC[C@H](N4)[C@H]2[C@H](C)O3)c1C=C(F)F: 2.70
Cc1c(F)c(N)cc(-c2nc3c4c(nc(OC[C@@]56CCCN5[C@@H](C(F)F)CC6)nc4c2F)N2C[C@H]4CC[C@H](N4)[C@H]2[C@H](C)O3)c1C(F)(F)F (single isomer, unassigned) [130 (isomer 1)]: 2.66
C[C@@H]1Oc2nc(-c3cc(N)c(F)cc3C(C)(F)F)c(F)c3nc(OC[C@@]45CCCN4C[C@H](F)C5)nc(c23)N2C[C@H]3CC[C@H](N3)[C@@H]12: 1.56

Batch request: log10 IC50 per item, same order as input.
1. Cc1c(F)c(N)cc(-c2nc3c4c(nc(OC[C@]5(CN6CC7(COC7)C6)CC5(F)F)nc4c2F)N2C[C@H]4CC[C@H](N4)[C@H]2[C@H](C)O3)c1C(F)(F)F (single isomer, unassigned) [165 b]
2. Cc1c(F)c(N)cc(-c2nc3c4c(nc(OC[C@]56COC[C@@H]5CCN6C)nc4c2F)N2C[C@H]4CC[C@H](N4)[C@H]2[C@H](C)O3)c1C(F)(F)F (single isomer, unassigned) [134 (isomer 2)]
3. Cc1c(F)c(N)cc(-c2nc3c4c(nc(OC[C@@H]5CC[C@H]6C[C@H](C(=O)N(C)C)CCN56)nc4c2F)N2C[C@H]4CC[C@H](N4)[C@H]2[C@H](C)O3)c1C(F)(F)F (single isomer, unassigned) [133 (isomer 4)]

[0.16, 1.58, 0.36]

Where do these numbers come from? They come from patent US20240025919A1.
